Data provenance is the RNAGym collection of RNA variant scans (doi:10.1073/pnas.2313332121).

Listing: polymerase ribozyme fitness (log ratio) of selected variants
B1: TPR 5TU (parent)
chain: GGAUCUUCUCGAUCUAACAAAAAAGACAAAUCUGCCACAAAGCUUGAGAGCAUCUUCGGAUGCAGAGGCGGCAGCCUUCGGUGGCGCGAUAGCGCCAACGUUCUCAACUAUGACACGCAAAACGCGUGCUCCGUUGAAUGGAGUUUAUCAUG

variants of: B1; assay: polymerase ribozyme fitness, log enrichment relative to wild type (log ratio); higher = more active; in vitro selection for triplet polymerase activity
Variants at the floor of the assay were thinned out.

Example cases with answers are listed next.
A12G A26G G94C C95A A137G | -4
A40C A98G C131U U134A | -2.13
U4A C5G G58A A73U C75U C85A G100A C105G U145A | ≤ -4.2

# next variant below
Per the record, A16C A110G has polymerase ribozyme fitness (log ratio) of -3.67
